- Tested on: Bacillus subtilis
- test.method.notes: Antibacterial activity against Bacillus subtilis ATCC 6633 at 100 ug/ml after 18 to 24 hr by agar well diffusion method
- Format: functional
- test.settings: read-out: IZ
endpoint.label: zone of inhibition at 100 µg/mL (mm)

record.smiles | tested.system | measure.unit | quantitative.result
COC(=O)/C(=C/c1ccc([N+](=O)[O-])cc1)Cn1nnn(-c2ccc(C(F)(F)F)cc2)c1=O | Bacillus subtilis | mm | 10
Cc1ccc(/C=C(\C#N)Cn2nnn(-c3ccccc3)c2=O)cc1 | Bacillus subtilis | mm | 16
COC(=O)/C(=C/c1ccc(OC)cc1)Cn1nnn(-c2ccc(OC)cc2)c1=O | Bacillus subtilis | mm | 16
COc1ccc(/C=C(\C#N)Cn2nnn(-c3ccc(C(F)(F)F)cc3)c2=O)cc1OC | Bacillus subtilis | mm | 14
CCOC(=O)/C(=C/c1ccc(Cl)cc1)Cn1nnn(-c2ccccc2)c1=O | Bacillus subtilis | mm | 20
COC(=O)/C(=C/c1ccc(F)cc1)Cn1nnn(-c2ccccc2)c1=O | Bacillus subtilis | mm | 6
COC(=O)/C(=C/c1ccc(Cl)cc1)Cn1nnn(-c2ccc(OC)cc2)c1=O | Bacillus subtilis | mm | 14
N#C/C(=C\c1ccccc1)Cn1nnn(-c2ccc(C(F)(F)F)cc2)c1=O | Bacillus subtilis | mm | 23
CCOC(=O)/C(=C/c1ccc(Cl)cc1)Cn1nnn(-c2ccc(OC)cc2)c1=O | Bacillus subtilis | mm | 20
COc1ccc(/C=C(\C#N)Cn2nnn(-c3ccc(OC)cc3)c2=O)cc1 | Bacillus subtilis | mm | 18
CCOC(=O)/C(=C/c1ccc(Cl)cc1)Cn1nnn(-c2ccc(C(F)(F)F)cc2)c1=O | Bacillus subtilis | mm | 15
COc1ccc(-n2nnn(C/C(C#N)=C/c3ccc(C)cc3)c2=O)cc1 | Bacillus subtilis | mm | 16
COc1ccc(/C=C(\C#N)Cn2nnn(-c3ccc(C(F)(F)F)cc3)c2=O)cc1 | Bacillus subtilis | mm | 11
COc1ccc(-n2nnn(C/C(C#N)=C/c3ccc(OC)c(OC)c3)c2=O)cc1 | Bacillus subtilis | mm | 11
COc1ccc(-n2nnn(C/C(C#N)=C/c3ccccc3)c2=O)cc1 | Bacillus subtilis | mm | 12
COC(=O)/C(=C/c1ccc([N+](=O)[O-])cc1)Cn1nnn(-c2ccc(OC)cc2)c1=O | Bacillus subtilis | mm | 10
COC(=O)/C(=C/c1ccc(F)cc1)Cn1nnn(-c2ccc(OC)cc2)c1=O | Bacillus subtilis | mm | 19
N#C/C(=C\c1ccc(Cl)cc1)Cn1nnn(-c2ccc(C(F)(F)F)cc2)c1=O | Bacillus subtilis | mm | 7
